Tested on: 677734-321-R-J1-PDC complex spheroid viability
Assay: Anticancer human tumor 677734-321-R-J1-PDC patient-derived soft tissue sarcoma cell line growth inhibition [POLQ]
Conditions: curve of first compound; second compound 1 µM
endpoint_label: pIC50
On this scale, pIC50 is minus log10 of a concentration expressed in M (mol/L).

{"compound": "CC1COCCN1c1cc(-c2ccnn2C)c2ccnc(-c3ccn[nH]3)c2n1 (stereo not given) + COC1C(OC(N)=O)C(O)C(Oc2ccc3c(O)c(NC(=O)c4ccc(O)c(CC=C(C)C)c4)c(=O)oc3c2C)OC1(C)C", "target_or_test_system": "677734-321-R-J1-PDC complex spheroid viability", "pIC50": 6.84}
{"compound": "CC1COCCN1c1cc(-c2ccnn2C)c2ccnc(-c3ccn[nH]3)c2n1 (stereo not given) + Cc1cccc(N(C)C(=O)C2C(O)CCN2c2nc(C)cc(C(F)(F)F)c2C#N)c1", "target_or_test_system": "677734-321-R-J1-PDC complex spheroid viability", "pIC50": 6.81}
{"compound": "COc1cc(C2c3cc4c(cc3C(OC3OC5COC(C)OC5C(O)C3O)C3COC(=O)C23)OCO4)cc(OC)c1O (stereo not given) + COC1C(OC(N)=O)C(O)C(Oc2ccc3c(O)c(NC(=O)c4ccc(O)c(CC=C(C)C)c4)c(=O)oc3c2C)OC1(C)C", "target_or_test_system": "677734-321-R-J1-PDC complex spheroid viability", "pIC50": 6.18}
{"compound": "CC1COCCN1c1cc(C2(S(C)(=N)=O)CC2)nc(-c2ccnc3[nH]ccc23)n1 (stereo not given) + Cc1cccc(N(C)C(=O)C2C(O)CCN2c2nc(C)cc(C(F)(F)F)c2C#N)c1", "target_or_test_system": "677734-321-R-J1-PDC complex spheroid viability", "pIC50": 5.42}
{"compound": "CC1COCCN1c1cc(C2(O)CC3CCC(C2)O3)c2cnn(-c3ccn[nH]3)c2n1 (stereo not given) + COC1C(OC(N)=O)C(O)C(Oc2ccc3c(O)c(NC(=O)c4ccc(O)c(CC=C(C)C)c4)c(=O)oc3c2C)OC1(C)C", "target_or_test_system": "677734-321-R-J1-PDC complex spheroid viability", "pIC50": 6.94}
{"compound": "CC[C@@]1(O)C(=O)OCc2c1cc1n(c2=O)Cc2cc3c(CN(C)C)c(O)ccc3nc2-1 + Nc1ccc(C#CCN(C(=O)Cc2ncc(C(F)(F)F)cc2C(F)(F)F)c2ccc(F)cc2)nn1", "target_or_test_system": "677734-321-R-J1-PDC complex spheroid viability", "pIC50": 7.65}

Give the measured pIC50 of COc1ccc([C@@H](O)c2cc(-c3ncnc4cc(N5CCOCC5)ccc34)c(F)cc2Cl)nn1 + Nc1ccc(C#CCN(C(=O)Cc2ncc(C(F)(F)F)cc2C(F)(F)F)c2ccc(F)cc2)nn1 .
5.10

====

Test system: 677734-321-R-J1-PDC complex spheroid viability
Test: Anticancer human tumor 677734-321-R-J1-PDC cell line growth inhibition [POLQ];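 note: spheroids exposed to compounds for one week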;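 for viability, T/C: 100% = vehicle DMSO treated spheroids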
Settings: second compound 0.0316 µM; first compound 0.1 µM; stronger effect = lower value
Listed here: items and their measured viability, T/C.
Entry rule: numbers only, all in %.

// solved cases for viability, T/C follow
{"molecule": "CCc1cc2c(N3CCc4c(cc(Cn5ccnc5)cc4-c4cn(C)nc4C(F)(F)F)C3=O)cc(C)nc2c(OC)n1 + Nc1ccc(C#CCN(C(=O)Cc2ncc(C(F)(F)F)cc2C(F)(F)F)c2ccc(F)cc2)nn1", "viability, T/C, %": 101}
{"molecule": "CCc1cc2c(N3CCc4c(cc(Cn5ccnc5)cc4-c4cn(C)nc4C(F)(F)F)C3=O)ccnc2c(OC)n1 + COC1C(OC(N)=O)C(O)C(Oc2ccc3c(O)c(NC(=O)c4ccc(O)c(CC=C(C)C)c4)c(=O)oc3c2C)OC1(C)C", "viability, T/C, %": 108}

Please look up its viability, T/C: O=C(Nc1ccc(O)c(NS(=O)(=O)c2ccc(F)cc2)c1)c1ccc(-c2ccccc2)cc1 + Cc1cccc(N(C)C(=O)C2C(O)CCN2c2nc(C)cc(C(F)(F)F)c2C#N)c1
92.9

====

Test system: 677734-321-R-J1-PDC complex spheroid viability
Test: Anticancer human tumor 677734-321-R-J1-PDC cell line growth inhibition [POLQ];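 note: spheroids exposed to compounds for one week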;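 for viability, T/C: 100% = vehicle DMSO treated spheroids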
Settings: second compound 0.316 µM; first compound 0.0316 µM; stronger effect = lower value
The entries below come with measured viability, T/C values attached.
# output: bare number, implied unit %

Use these answered entries as a reference point.
{"compound": "COc1cccc2c1C(=O)c1c(O)c3c(c(O)c1C2=O)CC(O)(C(=O)CO)CC3OC1CC(N)C(O)C(C)O1 (stereo unspecified) + COC1C(OC(N)=O)C(O)C(Oc2ccc3c(O)c(NC(=O)c4ccc(O)c(CC=C(C)C)c4)c(=O)oc3c2C)OC1(C)C", "value_observed": 60.4}
{"compound": "CC1COCCN1c1cc(C2(O)CC3CCC(C2)O3)c2cnn(-c3ccn[nH]3)c2n1 (stereo unspecified) + Cc1cccc(N(C)C(=O)C2C(O)CCN2c2nc(C)cc(C(F)(F)F)c2C#N)c1", "value_observed": 83.6}
{"compound": "C=CC(=O)N1CCN(c2nc(=O)n(-c3c(C)ccnc3C(C)C)c3nc(-c4c(O)cccc4F)c(F)cc23)C(C)C1 (stereo unspecified) + COC1C(OC(N)=O)C(O)C(Oc2ccc3c(O)c(NC(=O)c4ccc(O)c(CC=C(C)C)c4)c(=O)oc3c2C)OC1(C)C", "value_observed": 102}

Value wanted: viability, T/C (677734-321-R-J1-PDC complex spheroid viability) of entry C=CC(=O)N1CCN(c2nc(=O)n(-c3c(C)ccnc3C(C)C)c3nc(-c4c(O)cccc4F)c(F)cc23)C(C)C1 (stereo unspecified) + Cc1cccc(N(C)C(=O)C2C(O)CCN2c2nc(C)cc(C(F)(F)F)c2C#N)c1
106

# get_value(readout= viability, T/C, system= 677734-321-R-J1-PDC complex spheroid viability) for Cn1ncnc1[C@H]1c2n[nH]c(=O)c3cc(F)cc(c23)N[C@@H]1c1ccc(F)cc1 + Cc1cccc(N(C)C(=O)C2C(O)CCN2c2nc(C)cc(C(F)(F)F)c2C#N)c1
102

# get_value(readout= viability, T/C, system= 677734-321-R-J1-PDC complex spheroid viability) for CC1COCCN1c1cc(-c2ccnn2C)c2ccnc(-c3ccn[nH]3)c2n1 (stereo unspecified) + Nc1ccc(C#CCN(C(=O)Cc2ncc(C(F)(F)F)cc2C(F)(F)F)c2ccc(F)cc2)nn1
82.1

Which measured viability, T/C belongs to C=CCn1c(=O)c2cnc(Nc3ccc(N4CCN(C)CC4)cc3)nc2n1-c1cccc(C(C)(C)O)n1 + COC1C(OC(N)=O)C(O)C(Oc2ccc3c(O)c(NC(=O)c4ccc(O)c(CC=C(C)C)c4)c(=O)oc3c2C)OC1(C)C , tested on 677734-321-R-J1-PDC complex spheroid viability?
103

Item: CNCc1ccc(-c2[nH]c3cc(F)cc4c3c2CCNC4=O)cc1 + Cc1cccc(N(C)C(=O)C2C(O)CCN2c2nc(C)cc(C(F)(F)F)c2C#N)c1 Test system: 677734-321-R-J1-PDC complex spheroid viability Read-out: viability, T/C Value: ?
120

Write down the reported viability, T/C of O=c1[nH]cc(F)c(=O)[nH]1 + COC1C(OC(N)=O)C(O)C(Oc2ccc3c(O)c(NC(=O)c4ccc(O)c(CC=C(C)C)c4)c(=O)oc3c2C)OC1(C)C , test system: 677734-321-R-J1-PDC complex spheroid viability.
107

Value wanted: viability, T/C (677734-321-R-J1-PDC complex spheroid viability) of entry COc1cc2cc(C(=O)CCC(=O)O)sc2cc1OC + COC1C(OC(N)=O)C(O)C(Oc2ccc3c(O)c(NC(=O)c4ccc(O)c(CC=C(C)C)c4)c(=O)oc3c2C)OC1(C)C
113

For the record COc1cccc2c1C(=O)c1c(O)c3c(c(O)c1C2=O)CC(O)(C(=O)CO)CC3OC1CC(N)C(O)C(C)O1 (stereo unspecified) + Cc1cccc(N(C)C(=O)C2C(O)CCN2c2nc(C)cc(C(F)(F)F)c2C#N)c1 , what value of viability, T/C is listed for 677734-321-R-J1-PDC complex spheroid viability?
89.2

====

This listing pairs compounds with measured IC50.
System: 677734-321-R-J1-PDC complex spheroid viability
Test: Anticancer human tumor 677734-321-R-J1-PDC cell line growth inhibition [POLQ];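 note: spheroids exposed to compounds for one week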
Conditions: curve of first compound; second compound 0.0316 µM
The answer is to be given in nM; state only the numeric part.

Would you please look over these solved cases?
{"compound": "COc1cccc(OCCCN)c1-c1cc(Nc2cnc(C#N)cn2)n[nH]1 + COC1C(OC(N)=O)C(O)C(Oc2ccc3c(O)c(NC(=O)c4ccc(O)c(CC=C(C)C)c4)c(=O)oc3c2C)OC1(C)C", "target_or_test_system": "677734-321-R-J1-PDC complex spheroid viability", "IC50 [nM]": 7.45}
{"compound": "O=c1[nH]cc(F)c(=O)[nH]1 + Cc1cccc(N(C)C(=O)C2C(O)CCN2c2nc(C)cc(C(F)(F)F)c2C#N)c1", "target_or_test_system": "677734-321-R-J1-PDC complex spheroid viability", "IC50 [nM]": 5410}
{"compound": "CC1COCCN1c1cc(-c2ccnn2C)c2ccnc(-c3ccn[nH]3)c2n1 (stereo not given) + COC1C(OC(N)=O)C(O)C(Oc2ccc3c(O)c(NC(=O)c4ccc(O)c(CC=C(C)C)c4)c(=O)oc3c2C)OC1(C)C", "target_or_test_system": "677734-321-R-J1-PDC complex spheroid viability", "IC50 [nM]": 153}
{"compound": "CC1COCCN1c1cc(C2(O)CC3CCC(C2)O3)c2cnn(-c3ccn[nH]3)c2n1 (stereo not given) + COC1C(OC(N)=O)C(O)C(Oc2ccc3c(O)c(NC(=O)c4ccc(O)c(CC=C(C)C)c4)c(=O)oc3c2C)OC1(C)C", "target_or_test_system": "677734-321-R-J1-PDC complex spheroid viability", "IC50 [nM]": 131}
{"compound": "COc1cccc2c1C(=O)c1c(O)c3c(c(O)c1C2=O)CC(O)(C(=O)CO)CC3OC1CC(N)C(O)C(C)O1 (stereo not given) + COC1C(OC(N)=O)C(O)C(Oc2ccc3c(O)c(NC(=O)c4ccc(O)c(CC=C(C)C)c4)c(=O)oc3c2C)OC1(C)C", "target_or_test_system": "677734-321-R-J1-PDC complex spheroid viability", "IC50 [nM]": 104}
{"compound": "COc1cc(C2c3cc4c(cc3C(OC3OC5COC(C)OC5C(O)C3O)C3COC(=O)C23)OCO4)cc(OC)c1O (stereo not given) + Nc1ccc(C#CCN(C(=O)Cc2ncc(C(F)(F)F)cc2C(F)(F)F)c2ccc(F)cc2)nn1", "target_or_test_system": "677734-321-R-J1-PDC complex spheroid viability", "IC50 [nM]": 417}
{"compound": "C=CCn1c(=O)c2cnc(Nc3ccc(N4CCN(C)CC4)cc3)nc2n1-c1cccc(C(C)(C)O)n1 + Nc1ccc(C#CCN(C(=O)Cc2ncc(C(F)(F)F)cc2C(F)(F)F)c2ccc(F)cc2)nn1", "target_or_test_system": "677734-321-R-J1-PDC complex spheroid viability", "IC50 [nM]": 727}
{"compound": "COc1cc(C2c3cc4c(cc3C(OC3OC5COC(C)OC5C(O)C3O)C3COC(=O)C23)OCO4)cc(OC)c1O (stereo not given) + COC1C(OC(N)=O)C(O)C(Oc2ccc3c(O)c(NC(=O)c4ccc(O)c(CC=C(C)C)c4)c(=O)oc3c2C)OC1(C)C", "target_or_test_system": "677734-321-R-J1-PDC complex spheroid viability", "IC50 [nM]": 711}
{"compound": "CCCS(=O)(=O)Nc1ccc(F)c(C(=O)c2c[nH]c3ncc(-c4ccc(Cl)cc4)cc23)c1F + Nc1ccc(C#CCN(C(=O)Cc2ncc(C(F)(F)F)cc2C(F)(F)F)c2ccc(F)cc2)nn1", "target_or_test_system": "677734-321-R-J1-PDC complex spheroid viability", "IC50 [nM]": 5070}

Next up:
Which value of IC50 has been reported for COc1cccc2c1C(=O)c1c(O)c3c(c(O)c1C2=O)CC(O)(C(=O)CO)CC3OC1CC(N)C(O)C(C)O1 (stereo not given) + Cc1cccc(N(C)C(=O)C2C(O)CCN2c2nc(C)cc(C(F)(F)F)c2C#N)c1 in the records?
142
